- protocol_text: physchem
- conditions: pH 2.7
Labelling: log p reported below 3 becomes Yes; at or above becomes No.

These recorded examples may help you get a feel for the data.
>>> label("CCC(C)n1nc(-c2ccc(Cl)s2)c(-c2ccncc2)c1SC (stereo not drawn)")
"No"
>>> label("CC(C)Nc1nccc(-c2cn(C(C)C)nc2-c2ccc(Cl)s2)n1")
"Yes"
>>> label("CCC(C)n1ncc(I)c1-c1cc(Cl)cs1 (stereo not drawn)")
"No"
>>> label("CC(C)Nc1nccc(CC(=O)c2ccc(Cl)s2)n1")
"Yes"
>>> label("CSc1ccc(-c2nn(C(C)C)cc2-c2ccncc2)s1")
"Yes"

Given "Cc1c(Br)c(-c2ccc(Cl)s2)nn1C" , is recorded log p strictly lower than 3?
No

###

- conditions: pH 2.3
Marks after values point to notes of the source that are not given here.
Measured log p, listed per entry.

>>> test_value("CSc1nccc(-c2cn(C(C)C)nc2-c2ccc(Cl)s2)n1 [Example 222]")
"4.44^[a]"

Supply log p value. Item: CCC(C)n1cc(-c2ccnc(NC(=O)C(C)C)n2)c(-c2ccc(Cl)s2)n1 (stereo not shown) [Example 173]
3.72^[a]

Supply log p value. Item: CN(C)c1nccc(-c2c[nH]nc2-c2ccc(Cl)s2)n1 [Example 79]
1.69^[a]

Supply log p value. Item: Clc1ccc(-c2nn(Cc3ccccc3)cc2-c2ccncc2)s1 [Example 43]
2.35^[a]

Supply log p value. Item: CC(C)n1cc(-c2ccnc(NCC3CC3)n2)c(-c2ccc(Cl)s2)n1 [Example 183]
3.02^[a]

Supply log p value. Item: CC(C)Nc1nccc(-c2cn(C(C)C)nc2-c2ccc(Cl)s2)n1 [Example 181]
2.82^[a]

Supply log p value. Item: CCC(C)n1cc(-c2ccnc(NC(C)=O)n2)c(-c2ccc(Cl)s2)n1 (stereo not shown) [Example 151]
3^[a]

Supply log p value. Item: CC(C)Cn1ncc(-c2ccncc2)c1-c1ccc(Cl)s1 [Example 6]
2.2^[a]

###

- Tested on: Fusarium proliferatum
- protocol_text: Production of fumonisin FB1 by Fusarium proliferatum (microtiter plate, HPLC-MS/MS and OD620)
- Type: cell-based
- conditions: Fusarium proliferatum, OD620 at start and after 5 days
measurement_type: % inhibition fungal growth at 50 μM
A complete answer gives the number followed by the unit.

>>> test_value("COc1ccc(Cn2nc(-c3ccc(Cl)s3)c(-c3ccncc3)c2C2CC2)cc1")
"0%"
>>> test_value("CC(C)Cn1cc(-c2ccncc2)c(-c2ccc(Cl)s2)n1")
"91%"
>>> test_value("CCC(C)n1cc(-c2ccncc2)c(-c2ccc(F)s2)n1 (stereo not drawn)")
"39%"
>>> test_value("CC(C)Cn1cc(-c2ccnc(NC(=O)C(C)C)n2)c(-c2ccc(Cl)s2)n1")
"4%"

Supply % inhibition fungal growth at 50 μM value. Item: "CC(=O)n1cc(-c2ccncn2)c(-c2ccc(Cl)s2)n1"
22%

Supply % inhibition fungal growth at 50 μM value. Item: "CC(C)n1cc(-c2ccncc2)c(-c2ccc(F)s2)n1"
25%

Supply % inhibition fungal growth at 50 μM value. Item: "CC(C)n1cc(-c2ccncc2)c(-c2ccc(Cl)s2)n1"
88%

Supply % inhibition fungal growth at 50 μM value. Item: CCC(C)n1cc(-c2ccnc(C#N)c2)c(-c2ccc(Cl)s2)n1 (stereo not drawn)
17%

Supply % inhibition fungal growth at 50 μM value. Item: "Clc1ccc(-c2n[nH]cc2-c2ccncn2)s1"
46%

###

- conditions: pH 2.7
Marks after values point to notes of the source that are not given here.
measurement_type: log p

>>> test_value("CC(C)n1cc(-c2ccncc2)c(-c2cc3ccsc3s2)n1")
"1.79^[b]"

Supply log p value. Item: CCC(C)C(=O)Nc1cc(-c2cn(C(C)CC)nc2-c2ccc(Cl)s2)ccn1 (stereo not drawn)
4.05^[b]

Supply log p value. Item: "CC(C)=CCn1cc(-c2ccncc2)c(-c2sccc2Cl)n1"
1.74^[b]

Supply log p value. Item: O=C1OCCC1n1cc(-c2ccncc2)c(-c2ccc(Cl)s2)n1 (stereo not drawn)
1.48^[b]

Supply log p value. Item: CCC(C)n1cc(-c2ccncc2)c(-c2cc3ccsc3s2)n1 (stereo not drawn)
2.07^[b]

###

- protocol_text: physchem
- conditions: pH 2.7
Measured chromatographic logP, listed per entry.
# respond with the number and nothing more

// worked examples, chromatographic logP included
>>> test_value("CCn1cc(-c2ccncc2)c(-c2cccs2)n1 [Example 148]")
0.75
>>> test_value("CCC(C)n1cc(-c2ccncc2)c(-c2cc(Cl)cs2)n1 (stereo not shown) [Example 167]")
1.86
>>> test_value("CCC(=O)Nc1cc(-c2cn(CC)nc2-c2cccs2)ccn1 [Example 149]")
1.65

Supply chromatographic logP value. Item: CCC(=O)Nc1cc(-c2cn(C(C)CC)nc2-c2cc(Cl)cs2)ccn1 (stereo not shown) [Example 164]
3.07

###

- conditions: pH 2.7
measurement_type: logP value of the minor isomer (in parenthesis in column Isomer ratio [d])

>>> test_value("CC(C)Nc1nccc(-c2cn(Cc3ccccc3F)nc2-c2ccc(Cl)s2)n1")
"(3.02"

###

- conditions: pH 2.7
Marks after values point to notes of the source that are not given here.
measurement_type: log p

>>> test_value("Fc1cccc(Cn2cc(-c3ccncc3)c(-c3ccc(Br)s3)n2)c1F")
"2.44^[b]"
>>> test_value("CC(C)CCn1cc(-c2ccncc2)c(-c2ccc(Cl)s2)n1")
"2.45^[b]"
>>> test_value("Clc1ccc(-c2n[nH]cc2-c2ccncn2)s1")
"1.74^[b]"
>>> test_value("CCC(C)n1cc(-c2ccnc(NC(=O)OC(C)C)c2)c(-c2ccc(Cl)s2)n1 (stereo not shown)")
"4.33^[b]"
>>> test_value("Clc1ccc(-c2c(-c3ccncc3)cnn2C2CCCCC2)s1")
"2.26^[b]"

Supply log p value. Item: "CC(C)Cn1cc(-c2ccncc2)c(-c2cccs2)n1"
1.5^[b]

Supply log p value. Item: "Cc1[nH]nc(-c2ccc(Cl)s2)c1-c1ccncc1"
1.07^[b]

Supply log p value. Item: CCC(C)n1cc(-c2ccnc(Br)c2)c(-c2ccc(Cl)s2)n1 (stereo not shown)
5.03^[b]

Supply log p value. Item: "CC(C)Nc1nccc(-c2cn(CCc3ccccc3)nc2-c2ccc(Cl)s2)n1"
3.63^[b]

Supply log p value. Item: "FC=Cn1cc(-c2ccnc(N=C(c3ccccc3)c3ccccc3)c2)c(-c2ccc(Cl)s2)n1"
4.67^[b]

Supply log p value. Item: "CCC(CC)n1cc(-c2ccncc2)c(-c2ccc(Cl)s2)n1"
2.18^[b]

Supply log p value. Item: "Cn1cc(-c2ccncc2)c(-c2cc(Cl)cs2)n1"
1.11^[b]

Supply log p value. Item: "CCC(CC)n1cc(-c2ccncc2)c(-c2ccc(Br)s2)n1"
2.39^[b]

Supply log p value. Item: "CCn1cc(-c2ccncc2)c(-c2ccc(Cl)s2)n1"
1.5^[b]

Supply log p value. Item: C=CC(C)n1cc(-c2ccncc2)c(-c2sccc2Cl)n1 (stereo not shown)
1.51^[b]

Supply log p value. Item: "COc1ccc(Cn2nc(-c3ccc(Cl)s3)c(-c3ccncc3)c2SC)cc1"
3.78^[b]

Supply log p value. Item: CCC(C)n1cc(-c2ccnc(NC(=O)c3cccs3)c2)c(-c2ccc(Cl)s2)n1 (stereo not shown)
4.37^[b]

Supply log p value. Item: "Clc1ccc(-c2c(-c3ccncc3)cnn2C2CCCC2)s1"
2.13^[b]

Supply log p value. Item: "CC(=O)N(C(C)=O)c1cc(-c2cn(C)nc2-c2ccc(N(C(C)=O)C(C)=O)s2)ccn1"
1.84^[b]

###

Measured log p, listed per entry.
- conditions: pH 2.7
Marks after values point to notes of the source that are not given here.

>>> test_value("CC(C)OC(=O)Nc1cc(-c2cn(C(C)C)nc2-c2ccc(Cl)s2)ccn1")
"3.85^[b]"
>>> test_value("CC(=O)Nc1ccc(-c2nn(C)cc2-c2ccnc(N(C(C)=O)C(C)=O)c2)s1")
"1.39^[b]"
>>> test_value("CC(C)=CCn1ncc(-c2ccncn2)c1-c1ccc(Cl)s1")
"3.44^[b]"
>>> test_value("CC(=O)Nc1cc(-c2cn(C(C)C)nc2-c2ccc(Cl)s2)ccn1")
"2.45^[b]"

Now turn to the next compound.
Supply log p value. Item: "CCC(=O)Nc1cc(-c2c(-c3ccc(Cl)s3)nn(C(C)C)c2C)ccn1"
3.34^[b]

###

- System: Alternaria solani
- protocol_text: Alternaria test (tomato) / protective
- Assay type: in vivo
- conditions: 500 ppm active compound, protective spray, evaluated 7 days after inoculation
Quick rule for you: efficacy at 90% or higher means 1, lower means -1.

>>> label("CC(C)Cn1cc(-c2ccnc(N)n2)c(-c2ccc(Cl)s2)n1 [Example 95]")
-1
>>> label("CC(C)n1cc(-c2ccncc2)c(-c2cc3ccsc3s2)n1 [Example 366]")
-1
>>> label("CCC(C)n1cc(-c2ccnc(NC(=O)CC(C)C)c2)c(-c2ccc(Cl)s2)n1 (stereo not drawn) [Example 235]")
1
>>> label("CCC(CC)n1cc(-c2ccncc2)c(-c2cc3ccsc3s2)n1 [Example 333]")
1
>>> label("CCC(=O)Nc1cc(-c2cn(C(C)C)nc2-c2ccc(Cl)s2)ccn1 [Example 246]")
1

Answer whether efficacy of CC(=O)Nc1cc(-c2cn(CC(C)C)nc2-c2ccc(Cl)s2)ccn1 [Example 358] is greater than or equal to 90%.
1

Answer whether efficacy of CC(C)CC(=O)Nc1cc(-c2cn(C(C)C)nc2-c2ccc(Cl)s2)ccn1 [Example 258] is greater than or equal to 90%.
1

Answer whether efficacy of FCCn1cc(-c2ccncc2)c(-c2ccc(Br)s2)n1 [Example 388] is greater than or equal to 90%.
1

Answer whether efficacy of Cn1cc(-c2ccnc(N)c2)c(-c2ccc(Cl)s2)n1 [Example 305] is greater than or equal to 90%.
-1

Answer whether efficacy of CCn1cc(-c2ccnc(N=C(c3ccccc3)c3ccccc3)c2)c(-c2ccc(Cl)s2)n1 [Example 311] is greater than or equal to 90%.
-1
